Tested on: nude mice, LOX melanoma ip, survival T/C
Test: NCI In Vivo Anticancer Drug Screen. Data for tumor model Human Amelanotic Melanoma (LOX) (intraperitoneal) in NU/NU BALB/C (nude) mice
Settings: endpoint: median survival time; dose: 150.0 mg/kg/injection; schedule: Q04DX003 (ip); vehicle: saline
Toxic doses and inconclusive results are not listed. Rule for the calls: active = survival T/C of 150% or more; inactive = T/C below 125% in these data.
Returns: one label drawn from y for active, n for inactive

Below are worked cases with known answers.
| COMPOUND | CLASS_LABEL |
| --- | --- |
| NC(CCC(=O)NC(CS)C(=O)NCC(=O)O)C(=O)O (configuration not stated) | n |
| CN(C)CCC(=O)C(=Cc1ccc(O)cc1)C(=O)CCN(C)C | n |

Next compound, please.
GET /call?item= `COc1ccc2oc(-c3ccc(Cl)cc3)c(N3CCN(C)CC3)c2c1` returns the recorded outcome of this test.
n

* * *

Tested on: nude mice, LOX melanoma ip, survival T/C
Assay: NCI In Vivo Anticancer Drug Screen. Data for tumor model Human Amelanotic Melanoma (LOX) (intraperitoneal) in NU/NU BALB/C (nude) mice
Conditions: endpoint: median survival time; dose: 75.0 mg/kg/injection; schedule: Q04DX003 (ip); vehicle: water; higher = longer survival
Toxic doses and inconclusive results are not listed.
MEASURED_METRIC: T/C

| COMPOUND | RESULT |
| --- | --- |
| [Na+] | 104 % of control |
| Oc1cccc2ccccc12 | 106 % of control |

Recall the recorded T/C for COC(=O)NC1C(C)OC(OC2C/C=C(/C)C3C=CC4C(OC5CC(OC6CC(OC7CC(O)C(O)C(C)O7)C(OC7CC(O)C(OC)C(C)O7)C(C)O6)C(O)C(C)O5)C(C)CC(C)C4C3(C)/C(O)=C3\C(=O)OC4(CC(C)C(CO)=CC4/C=C\2C)C3=O)CC1(C)[N+](=O)[O-] (stereo not drawn) with nude mice, LOX melanoma ip, survival T/C and state it.
93 % of control

`O=C1CN(CCN2CC(=O)N(CN3CCOCC3)C(=O)C2)CC(=O)N1CN1CCOCC1` ?
102 % of control

`O=NNc1ccc2cccnc2n1` ?
192 % of control

`c1ccc2c3c(c4c(c2c1)CN(C1CCCCC1)CO4)OCN(C1CCCCC1)C3` ?
123 % of control

`COc1ccc(OC)c(Cc2cnc3nc(N)nc(N)c3c2C)c1` ?
88 % of control

`CC(=O)NO` ?
101 % of control

* * *

Tested on: nude mice, LOX melanoma ip, survival T/C
Experiment: NCI In Vivo Anticancer Drug Screen. Data for tumor model Human Amelanotic Melanoma (LOX) (intraperitoneal) in NU/NU BALB/C (nude) mice
Conditions: endpoint: median survival time; dose: 37.5 mg/kg/injection; schedule: Q04DX003 (ip); vehicle: saline
Description: The antitumor activity of compounds was measured in mice bearing transplantable tumors. Survival or tumor size were measured and the results are expressed as the measurement made in the treated group (T) divided by the measurement made in the vehicle treated control group (C). The tumor model used in this assay is Human Amelanotic Melanoma (LOX) (intraperitoneal) in NU/NU BALB/C (nude) mice
Inconclusive results and toxic doses are left out. The calls were made as follows: active = survival T/C of 150% or more; inactive = T/C below 125% in these data.
Returns: one label drawn from True = active, False = inactive

| COMPOUND | CLASS_LABEL |
| --- | --- |
| NNC(=O)c1ccncc1 | False |
| CC#CCOCC(O)CCl (stereo unspecified) | False |
| O=C(Oc1ccccc1)c1cc(O)c(O)c(O)c1 | True |
| CN(C)CCC(=O)C(=Cc1ccc(O)cc1)C(=O)CCN(C)C | False |
| Nc1ccn([C@@H](C=O)C[C@@H](C=O)CO)c(=O)n1 | False |

Next compound, please.
GET /call?item= `O=C1c2cccc(NCCCNCCO)c2C(=O)c2cccc(NCCCNCCO)c21` returns the recorded outcome of this test.
False
